Data credit: paper PMC5522708

biological target: human renalase (Homo sapiens, UniProt Q5VYX0); assay type: biochemical, H. sapiens
Sequence (Q5VYX0 18-342): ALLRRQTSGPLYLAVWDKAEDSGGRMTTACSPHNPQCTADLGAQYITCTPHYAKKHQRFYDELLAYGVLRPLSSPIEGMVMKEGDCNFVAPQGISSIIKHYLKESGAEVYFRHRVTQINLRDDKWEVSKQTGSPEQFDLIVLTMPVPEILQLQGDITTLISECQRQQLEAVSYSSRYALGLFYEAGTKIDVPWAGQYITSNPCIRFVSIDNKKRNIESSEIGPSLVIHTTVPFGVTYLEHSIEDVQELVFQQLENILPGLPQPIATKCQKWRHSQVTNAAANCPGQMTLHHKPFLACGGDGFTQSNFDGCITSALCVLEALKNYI
experimentalReadout: IC50

molecule="NC(=O)c1ccc[n+]([C@@H]2O[C@H](CO)[C@@H](O)[C@H]2O)c1 [NR^+, nicotinamide riboside]" experimentalresult="> 7.3 mM"
molecule="NC(=O)c1cccnc1 [nicotinamide]" experimentalresult="> 68 mM"
